Hi there, I'd appreciate the recorded amyloid nucleation score for every entry that follows.
Test: amyloid nucleation score (Sup35N fusion, yeast selection) (log enrichment); library NNK1; higher = more nucleation; inactive = no reads after selection;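 also: zero at mode of non-aggregating sequences after 7 days selection at 30°C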
Give bare numbers.

Some solved cases for reference:
> print(dat)
              substance  recorded.number
1  FGFSKWSSMLIRHQPYDLFI             -1.1
2  ILITSLWFSGVADVMANRVW            0.314
3  TSHSCHIVGAFMKKCWFSST           -0.057
4  VFLYFIVLNANHCFIMPEHF             3.42
5             RNVRGSSKT             1.37

Quick one: give me amyloid nucleation score for each item below, same order please.
1. SDHRTW
2. TLMGQWGWFSSVAYNNAGIV
3. RGSNAMDYSEVFCWMYNDLL
4. SPLNKMVTFVAVLAFVFVLV

Result ::
0.743
-1.36
1.11
0.114

Respectfully, I request amyloid nucleation score for each entry included below.
1. DCMIVGLHHIKVRHSLFVRW
2. RDAEWTMIIIIARNQMKAFS
3. TSFCGLVAPQLCKFSMRSLE
4. PILKQNHWRDFGNCLAKRRE

Result ::
1: -0.128; 2: -0.162; 3: -0.504; 4: -0.281

Hi team, please reply with amyloid nucleation score for each item in this list.
1. RDLTKSDLMSVNAYMVIYRW
2. VFAVLRLPPKMTARSMGASP

Result ::
0.382
0.661

---

Assay: amyloid nucleation score (Sup35N fusion, yeast selection) (log enrichment); library NNK1; higher = more nucleation; inactive = no reads after selection
Please use the following amyloid nucleation score ranges when assigning a class: lowest = under 0.1, middle = from 0.1 up to 0.7, highest = 0.7 and over

Answered examples (2):
> print(dat)
            biosequence   group
1  DHASGLVLLCLVWLGLMSLK  middle
2  NSDLWIGVCAVLSGLMTIIG  middle

Query :: Field: class (amyloid nucleation score) — entry: VCMRTAGCFSDTYGVHGFKI
Result :: highest

---

Test: amyloid nucleation score (Sup35N fusion, yeast selection) (log enrichment); library NNK2; higher = more nucleation; inactive = no reads after selection
# thresholds on amyloid nucleation score define classes: one (below -0.3), two (-0.3 to below 1), three (1 or more)

Solved cases (6 shown):
> print(dat)
              substance  group
1               SCRIFFE    two
2  MQIIGWILWGVLQAELHYRS    one
3  ANRWSMQGSERASSANWHRW  three
4  WKKSMKIVNKYAVSLPDVGR    two
5  PCWLNGWERFHIWRFNGSVR    two
6   LFASALFRMVSAFLEVAIL    two

Query :: Into which category would you place NWTLYFDNRGRVLNTYSTRY ?
Result :: three

Query :: Check KNLRWCQGFSRGIECRSLMV too.
Result :: one

Query :: Likewise for IPLQSTMRFRCPVMDLGNFI ?
Result :: one

Query :: Would you kindly repeat that for SSDTIQYYSKQNMVRRENC ?
Result :: three

Query :: Input HNNCNRFCQSIVLH
Result :: three

Query :: Input MIGNQNQGVCW
Result :: two

Query :: What would you report for CMLMYVYMIDWRPINFMFF ?
Result :: three

Query :: Now consider FLSRWSFPHGEFLLIRTLAG and answer again.
Result :: one

Query :: Again, but for CYINKVRCMMHLWDHDDTWG
Result :: two

---

Assay: amyloid nucleation score (Sup35N fusion, yeast selection) (log enrichment); library NNK2; higher = more nucleation; inactive = no reads after selection
Mark 1 for reported amyloid nucleation score of 0.4 or greater; mark -1 for anything smaller.

> print(dat)
              substance  group
1                RPRAWI      1
2  SHGWGTAAVWNIAVCRRSLG     -1
3            DRRWHRALQN     -1
4  DRAVRQFIFLVYGSSLDWDI     -1
5  GIGLRLCLSDRLWMRSIYVD      1
6  FIWTYSYRDVWVLRVAVWLQ     -1
7  INQFMRDFLDHLPCAYRVYN     -1
8  TSSFEARRRGWLTDEGVLFY      1

Query :: Is amyloid nucleation score at least 0.4? Consider GIHCGR
Result :: 1

Query :: Note, next up: YYEMFCYSCPSDRPGISNDA
Result :: 1

Query :: Please answer likewise for LIAQMM
Result :: -1

Query :: How about this substance: RLSENFLRWSDVTIQSRLFG
Result :: 1

Query :: Try the substance FLSSYVFLCWCSLVSWGGTW
Result :: 1

Query :: And what about the substance PSTIGQYITR ?
Result :: -1

Query :: // query: VCFGIKWSMLCWYFMDGGQQ
Result :: 1

Query :: Repeat with KFVYSGGLFTMLRSC
Result :: -1

Query :: Same lookup for NYYINDADGRLLARWLYKLF , please.
Result :: -1

Query :: Continue with EVWRWIFNHGLPRHAGHIVA
Result :: -1

Query :: Further, for KSSDGPKAQV ?
Result :: 1

Query :: And for VVYWRWTTPDLRVKAHGLFF ?
Result :: 1

Query :: Cool, now LPHESFNQHGKLFMAD
Result :: -1

Query :: Can you handle SVFIGVVPNESQCYV next?
Result :: -1

Query :: Again, but for APPLTLELQYGWPLQRPLTK
Result :: -1

Query :: Input RPDNSDV
Result :: -1

Query :: What do you have for KLSYFAFFRSVDGLR ?
Result :: 1

Query :: How about MQMLWYTMFFNSSRLVC ?
Result :: -1

Query :: Entry RFFGLAKMRMLVKCQ please
Result :: -1

Query :: For VHRSLSLFSFKSSECRPS then?
Result :: 1

Query :: Cool, now MVLEGHKCYGLRNGPNNARI
Result :: 1

Query :: Try the substance YLDGYSSFTSFEKAMARRCG
Result :: -1

Query :: Here is the next substance: SVSYTNVLYHIKVDEFFNEC
Result :: 1

Query :: Another: SGWSNFVLCILHTTTGMKRH
Result :: 1

---

Test: amyloid nucleation score (Sup35N fusion, yeast selection) (log enrichment); library NNK3; higher = more nucleation; inactive = no reads after selection
ATTRIBUTE MEASURED: amyloid nucleation score

These solved cases illustrate the format of a correct answer.
> print(dat)
              substance    result
1          SYMQMTELKEAP  inactive
2  YVTTMFEITRGRSWYSRSLG     0.611
3          KIVLDRARDWQL     0.094
4               LGVCSGH  inactive
5              LSGENQLG  inactive
6  YFYFDFNYNMYGVKALLVLC  inactive
7  CLVNWPMWENPWSPHFGSNY  inactive
8       RSVKSIDSHMAKESF  inactive

Query :: Query: amyloid nucleation score; subject: FLRRLSRKTKDMDSSRGMCC
Result :: inactive

---

Test: amyloid nucleation score (Sup35N fusion, yeast selection) (log enrichment); library NNK3; higher = more nucleation; inactive = no reads after selection
ATTRIBUTE MEASURED: amyloid nucleation score

> print(dat)
              substance        attribute.measured    result
1      NNIVNSLYFEMGYGVN  amyloid nucleation score  inactive
2  IPVLLPSMCINNKFMVSSWN  amyloid nucleation score      1.39
3  DCGKRSTTINFAWNGAVQPD  amyloid nucleation score      1.04
4          KLFYQMILYRNG  amyloid nucleation score  inactive
5  QFDLAMMSVVCYVFFMYWFL  amyloid nucleation score  inactive
6  ERARAAWSNGKAGLLWSGPG  amyloid nucleation score  inactive
7  SLPYCGVTSLSHSWVPMAIR  amyloid nucleation score  inactive
8  GSLMTRRDLRKSPILIYRDG  amyloid nucleation score    -0.819

Batch request: amyloid nucleation score per item, same order as input.
1. LVCFPGTSFAGVCDW
2. SYMLWYSS
3. STGFGE
4. VGSIARLFVQTAMPVPKLAR
5. EFHCSYLVIWYG
6. TNQQYGSLGFISTSGIILLF

Result ::
inactive
inactive
inactive
inactive
inactive
inactive

Report amyloid nucleation score for each item below.
1. RLKLNGAQGEFSGVWLDIWA
2. RYGVWLTCYVRAKLM
3. GTDWLDMVILGEPFYMYLST

Result ::
inactive
inactive
inactive

Below are some substances; for each one, tell me its amyloid nucleation score.
1. SNMIRVRWRVAFRGWMARCL
2. HCSQLFESTYKRMSHISRDL
3. NMENLKRGFVIWS
4. ECYMVCFDSCSNIMFVLDLE
5. ANELERYYVMCFW

Result ::
["inactive", -0.56, "inactive", 1.92, 1.64]

Dear colleague, could you please provide amyloid nucleation score for the substances listed below?
1. YRKNLRHSLCRNWLYMDCHV
2. IYDCFVTGSFLRK
3. MVIYSLHRTLIIICGRANLT

Result ::
inactive
inactive
inactive

Below is a list of substances. For each, state its recorded amyloid nucleation score.
1. FACFAVIILHVIMYVRMSSV
2. LVFSRCWFSMTVEYISYSVD

Result ::
1. inactive
2. inactive

Provide the reported amyloid nucleation score of each entry below, same order.
1. SLVGRSCLRY
2. GKFFMVSRYCESSSLRFESM
3. TRLWDKD

Result ::
1. inactive
2. 1.15
3. inactive

Could you tell me amyloid nucleation score for each of these substances? They are listed below.
1. SAVRGRCVLYGNRPLIHVRK
2. LCVVEIFTLIGSCCHSDLGW
3. DDCIIRAGWDLLQR
4. TDYMLVWSQYRLIHFCNLVV
5. TTPYWRRECRWSEFGFA
6. CTLRTVCHTGLLWVTFHRQY

Result ::
1. inactive
2. 0.914
3. inactive
4. inactive
5. inactive
6. 0.675
